Origin of the recorded values: patent US20240141038A1

tgt: T1, human NKp46 (full length, on cells) (human, UniProt O76036 22-304)
T1 construct: also called human NKp46-CHOK1
method description: flow cytometry on human NKp46-CHOK1 cells
Let's look at some binders and their measured Top MFI.

{"binder": "H1-PA27 humanized antibody (antibody, human IgG1, V domains shown, also called hPA27; not shown: constant region of human IgG1) VH: QVQLVESGGGVVQPGRSLRLSCAASGRTESWYRMGWVRQAPGKGLEWVARISGDTNIKYYAGSVKGRFTISRDNSKNTLYLQMSSLRAEDTAVYYCAADRTGATWDYWGQGTLVTVSS", "Top MFI": 6000}
{"binder": "H4-PA27 humanized antibody (antibody, human IgG1, V domains shown, not shown: constant region of human IgG1) VH: DVQLVESGGGVVQPGRSLRLSCAASGRTESWYRMGWFRQAPGKGREVVARISGDTNIKYYAGSVKGRFTISRDNSKNTLYLQMSSLRAEDTAVYYCAADRTGATWDYWGQGTLVTVSS", "Top MFI": 6650}
{"binder": "H3-PA31 humanized antibody (antibody, human IgG1, V domains shown, not shown: constant region of human IgG1) VH: EVQLVESGGGLVQPGGSLRLSCAVSGRTFSRLPMGWFRQAPGKGREFVAAISWSSSTTYYADSVKGRFTISRDNSKNTAYLQMNSLRAEDTAVYYCAAVGGSLDYSATVVYTAARAYADWGQGTLVTVSS", "Top MFI": 5980}
{"binder": "H2-PC11 humanized antibody (antibody, human IgG1, V domains shown, not shown: constant region of human IgG1) VH: EVQLVESGGGLVQPGGSLRLSCAPSPYSANSFSMAWFRQAPGKGLEGIACIQAESGSTNVAPSVKGRFTISQDNSKNTLYLQMNSLRAEDTAVYYCAAFKRNVGGCELRPEHWRFWGQGTLVTVSS", "Top MFI": 6940}
